# measurement.protocol: recombinant UMI read abundance after kanamycin selection (control-corrected) (log10(CPM+1)); higher = more efficient recombination; extreme values may be limits of the assay; sequences stand for … in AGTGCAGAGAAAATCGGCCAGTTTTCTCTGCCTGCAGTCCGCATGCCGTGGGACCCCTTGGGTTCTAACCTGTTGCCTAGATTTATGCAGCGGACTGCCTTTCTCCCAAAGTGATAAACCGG…AGGTTGGTTTCACT; site = the 11-nt donor;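 further: IS621 bridge recombinase in Escherichia coli cells against a fixed T5 target plasmid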
Listed here are sequences together with their documented recombinant UMI read abundance (log10).

{"columns": ["chain", "recombinant UMI read abundance (log10)"],
 "data": [
  ["GCCGCGCCATGGACCGGTTTTCCCGGTAATCCGTATTTGTA (site GCCGCGCCTTA)", 0.234],
  ["ACCACTCCATGGACCGGTTTTCCCGGTAATCCGTATTTGTA (site ACCACTCCTTA)", 0.852],
  ["CGGTAGTCATGGACCGGTTTTCCCGGTAATCCGTATTTGTT (site CGGTAGTCTAA)", 3.15],
  ["CGATCATCATGGACCGGTTTTCCCGGTAATCCGTATTTGTA (site CGATCATCTAG)", 0],
  ["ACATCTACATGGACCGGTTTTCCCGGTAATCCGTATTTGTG (site ACATCTGCTCA)", 0.0534],
  ["ATCCCAGCATGGACCGGTTTTCCCGGTAATCCGTATTTGAG (site ATCCAAGCTCT)", 0.00798],
  ["ATTTATACATGGACCGGTTTTCCCGGTAATCCGTATTTGAC (site ATTTATACTGT)", 0.544],
  ["CGTTACACATGGACCGGTTTTCCCGGTAATCCGTATTTGAG (site CGTTAGACTCT)", 0.0129],
  ["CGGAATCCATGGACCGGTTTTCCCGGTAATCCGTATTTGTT (site CGGAATCCTAA)", 1.19]
]}
